System: large crabgrass (Digitaria sanguinalis)
ASSAY: Test B pre-/postemergence plant response
Type: in vivo
SETUP CONDITIONS: 8 g ai/ha, postemergence; 0-100 scale
MEASURED PARAMETER: Crabgrass, Large plant response rating

>>> result_value("Cc1cc(-c2ccc(Cl)cc2)nn1-c1c(OS(=O)(=O)c2ccccc2)cnn(C)c1=O [Compound 35]")
60
>>> result_value("Cc1cc(-c2ccc(Cl)cc2)nn1-c1c(OC(=O)c2ccccc2Cl)cnn(C)c1=O [Compound 38]")
70
>>> result_value("CCCc1cc(-c2ccc(Cl)cc2)nn1-c1c(O)cnn(C)c1=O [Compound 76]")
20
>>> result_value("CCCc1cc(-c2ccc(C(F)(F)F)cc2)nn1-c1c(O)cnn(C)c1=O [Compound 72]")
95
>>> result_value("Cc1cc(-c2ccc(Cl)cc2)nn1-c1c(OC(=O)Oc2ccccc2)cnn(C)c1=O [Compound 54]")
65
>>> result_value("CCc1cc(-c2ccc(Br)cc2)nn1-c1c(O)cnn(CC(F)(F)F)c1=O [Compound 73]")
45
>>> result_value("COc1nn(C)c(=O)c(-n2nc(-c3ccc(Br)cc3)cc2C)c1O [Compound 82]")
100
>>> result_value("CCc1c(C)c(-c2ccc(Br)cc2)nn1-c1c(O)cnn(C)c1=O [Compound 83]")
80

---

Tested on: surinam grass (Brachiaria decumbens)
ASSAY: Test B pre-/postemergence plant response
Type: in vivo
SETUP CONDITIONS: Preemergence; 16 g ai/ha; scale 0 to 100
MEASURED PARAMETER: Surinam Grass plant response rating

>>> result_value("Cc1cc(-c2ccc(Cl)cc2)nn1-c1c(OC(=O)c2cccs2)cnn(C)c1=O")
0
>>> result_value("CCc1c(C)c(-c2ccc(Br)cc2)nn1-c1c(O)cnn(C)c1=O")
90
>>> result_value("CCCc1cc(-c2ccc(Cl)cc2)nn1-c1c(O)cnn(C)c1=O")
90
>>> result_value("CCc1cc(-c2ccc(Br)cc2)nn1-c1c(O)c(C)nn(C)c1=O")
100

---

System: canarygrass (Phalaris minor)
ASSAY: Test A pre-/postemergence plant response
Assay type: in vivo
SETUP CONDITIONS: Postemergence, 125 g ai/ha; 0 to 100 scale, 0 no effect, 100 complete control
MEASURED PARAMETER: Plant response rating, Canarygrass

>>> result_value("CCc1cc(-c2ccc(Cl)cc2)nn1-c1c(O)c(C)nn(C)c1=O [Compound 86]")
100
>>> result_value("CC(C)Cc1cc(-c2ccc(Cl)cc2)nn1-c1c(O)cnn(C)c1=O [Compound 92]")
30
>>> result_value("CCCc1cc(-c2ccc(Cl)cc2)nn1-c1c(O)cnn(C)c1=O [Compound 76]")
100
>>> result_value("CCc1cc(-c2ccc(Br)cc2)nn1-c1c(O)c(C)nn(C)c1=O [Compound 74]")
100
>>> result_value("Cc1nn(C)c(=O)c(-c2nc(-c3ccc(Cl)cc3)sc2C)c1O [Compound 79]")
90

---

System: pigweed (Amaranthus retroflexus)
ASSAY: Test B pre-/postemergence plant response
Type: in vivo
SETUP CONDITIONS: Preemergence; 8 g ai/ha; scale 0 to 100
Measured Pigweed plant response rating, listed per entry for reference.
MEASURED PARAMETER: Pigweed plant response rating

>>> result_value("CCCc1cc(-c2ccc(Cl)cc2)nn1-c1c(O)cnn(C)c1=O")
0
>>> result_value("Cc1cc(-c2ccc(C(F)(F)F)cc2)nn1-c1c(O)c(C(C)C)nn(C)c1=O")
0
>>> result_value("CCOC(=O)Oc1cnn(C)c(=O)c1-n1nc(-c2ccc(Cl)cc2)cc1C")
0
>>> result_value("Cc1cc(-c2ccc(Cl)cc2)nn1-c1c(OS(=O)(=O)C(C)C)cnn(C)c1=O")
0
>>> result_value("Cc1cc(-c2ccc(Cl)cc2)nn1-c1c(OS(=O)(=O)c2cccc3ccccc23)cnn(C)c1=O")
0
>>> result_value("Cc1cc(-c2ccc(Cl)cc2)nn1-c1c(OC(=O)CC(C)C)cnn(C)c1=O")
0
>>> result_value("CCc1cc(-c2ccc(Cl)cc2)nn1-c1c(O)cnn(C)c1=O")
0
>>> result_value("Cc1cc(-c2ccc(Cl)cc2)nn1-c1c(OC(=O)c2cccs2)cnn(C)c1=O")
0

---

Known Plant response rating, Oat, Wild of a selection of compounds
System: wild oat (Avena fatua)
ASSAY: Test C pre-/postemergence plant response
Assay type: in vivo
SETUP CONDITIONS: Preemergence, 62 g ai/ha; scale 0 to 100, 0 no effect, 100 complete control
MEASURED PARAMETER: Plant response rating, Oat, Wild

>>> result_value("Cc1cc(-c2ccc(Cl)cc2)nn1-c1c(OS(=O)(=O)c2ccc(Cl)s2)cnn(C)c1=O [Compound 55]")
65
>>> result_value("CCCc1cc(-c2ccc(Cl)cc2)nn1-c1c(O)cnn(C)c1=O [Compound 43]")
98
>>> result_value("CCc1cc(-c2ccc(Cl)cc2)nn1-c1c(O)cnn(C)c1=O [Compound 21]")
100
>>> result_value("Cc1cc(-c2ccc(Cl)cc2)nn1-c1c(OS(=O)(=O)c2ccccc2)cnn(C)c1=O [Compound 35]")
70

---

Recorded Plant response rating, Blackgrass, one value per entry.
Tested on: blackgrass (Alopecurus myosuroides)
ASSAY: Test A pre-/postemergence plant response
Type: in vivo
SETUP CONDITIONS: Postemergence, 31 g ai/ha; 0 to 100 scale, 0 no effect, 100 complete control
MEASURED PARAMETER: Plant response rating, Blackgrass

>>> result_value("Cc1cn(-c2ccc(C(F)(F)F)cc2)nc1-c1c(O)cnn(C)c1=O")
0
>>> result_value("CCc1cc(-c2ccc(Br)cc2)nn1-c1c(O)cnn(CC(F)(F)F)c1=O")
90
>>> result_value("CCc1cc(-c2ccc(Br)cc2)nn1-c1c(O)c(C)nn(C)c1=O")
100
>>> result_value("CCc1cc(-c2ccc(Cl)cc2)nn1-c1c(O)c(C)nn(C)c1=O")
80
>>> result_value("CC(C)Cc1cc(-c2ccc(Cl)cc2)nn1-c1c(O)cnn(C)c1=O")
0
>>> result_value("COc1nn(C)c(=O)c(-n2nc(-c3ccc(Br)cc3)cc2C)c1O")
100

---

Plant response rating, Bromegrass, Downy values for the compounds below.
Test system: downy bromegrass (Bromus tectorum)
ASSAY: Test B pre-/postemergence plant response
Assay type: in vivo
SETUP CONDITIONS: Postemergence, 62 g ai/ha; scale 0 to 100, 0 no effect, 100 complete control
MEASURED PARAMETER: Plant response rating, Bromegrass, Downy

>>> result_value("Cc1nn(C)c(=O)c(-n2nc(-c3ccc(Cl)cc3)cc2Cl)c1O")
10
>>> result_value("CCCc1cc(-c2ccc(Cl)cc2)nn1-c1c(O)cnn(C)c1=O [Compound 43]")
65
>>> result_value("Cc1cc(-c2ccc(Cl)cc2)nn1-c1c(OC(=O)Oc2ccccc2)cnn(C)c1=O")
70
>>> result_value("Cc1cc(-c2ccc(Cl)cc2)nn1-c1c(OC(=O)CC(C)C)cnn(C)c1=O")
75
>>> result_value("Cn1ncc(O)c(-n2nc(-c3ccc(Cl)cc3)cc2C2CC2)c1=O")
90
>>> result_value("CCCc1cc(-c2ccc(Cl)cc2)nn1-c1c(O)cnn(C)c1=O [Compound 76]")
20

---

System: velvetleaf (Abutilon theophrasti)
ASSAY: Test A pre-/postemergence plant response
Format: in vivo
SETUP CONDITIONS: Preemergence, 125 g ai/ha; 0 to 100 scale (0 no effect, 100 complete control)
MEASURED PARAMETER: Plant response rating, Velvetleaf

>>> result_value("CCOC(=O)Oc1cnn(C)c(=O)c1-n1nc(-c2ccc(Cl)cc2)cc1C [Compound 53]")
0
>>> result_value("Cc1cc(-n2cc(Cl)cn2)ccc1-c1c(O)cnn(C)c1=O [Compound 60]")
0
>>> result_value("CCc1cc(-c2ccc(Cl)cc2)nn1-c1c(O)cnn(C)c1=O [Compound 21]")
0
>>> result_value("CCc1cc(-c2ccc(Cl)c(Cl)c2)nn1-c1c(OC(=O)OC(C)C)cnn(C)c1=O [Compound 22]")
0
>>> result_value("Cc1nn(C)c(=O)c(-n2nc(-c3ccc(Cl)cc3)cc2Cl)c1O [Compound 59]")
0
>>> result_value("Cc1ccc(-c2ccc(Cl)cc2)cc1-c1c(O)cnn(C)c1=O [Compound 46]")
0
>>> result_value("Cn1ncc(O)c(-n2nc(-c3ccc(Cl)cc3)cc2C2CC2)c1=O [Compound 45]")
0
>>> result_value("Cc1cc(-c2ccc(C(F)(F)F)cc2)nn1-c1c(O)c(C(F)(F)F)nn(C)c1=O [Compound 42]")
0
>>> result_value("Cc1nn(C)c(=O)c(-n2nc(-c3ccc(Cl)cc3)cc2C)c1O [Compound 15]")
0
>>> result_value("Cc1cc(-c2ccc(C(F)(F)F)c(F)c2)nn1-c1c(O)c(C(F)(F)F)nn(C)c1=O [Compound 44]")
0
